biological target: T1, human TrkA receptor on the cell surface (human, UniProt P04629 33-796); test: flow cytometry on TF-1 cells, 4 µg/ml; parameters: reference not given here
T1 construct: whole, on cells; PC12-hTrkA: high density; also called hTrkA; huTrkA
T1 sequence (P04629 33-796): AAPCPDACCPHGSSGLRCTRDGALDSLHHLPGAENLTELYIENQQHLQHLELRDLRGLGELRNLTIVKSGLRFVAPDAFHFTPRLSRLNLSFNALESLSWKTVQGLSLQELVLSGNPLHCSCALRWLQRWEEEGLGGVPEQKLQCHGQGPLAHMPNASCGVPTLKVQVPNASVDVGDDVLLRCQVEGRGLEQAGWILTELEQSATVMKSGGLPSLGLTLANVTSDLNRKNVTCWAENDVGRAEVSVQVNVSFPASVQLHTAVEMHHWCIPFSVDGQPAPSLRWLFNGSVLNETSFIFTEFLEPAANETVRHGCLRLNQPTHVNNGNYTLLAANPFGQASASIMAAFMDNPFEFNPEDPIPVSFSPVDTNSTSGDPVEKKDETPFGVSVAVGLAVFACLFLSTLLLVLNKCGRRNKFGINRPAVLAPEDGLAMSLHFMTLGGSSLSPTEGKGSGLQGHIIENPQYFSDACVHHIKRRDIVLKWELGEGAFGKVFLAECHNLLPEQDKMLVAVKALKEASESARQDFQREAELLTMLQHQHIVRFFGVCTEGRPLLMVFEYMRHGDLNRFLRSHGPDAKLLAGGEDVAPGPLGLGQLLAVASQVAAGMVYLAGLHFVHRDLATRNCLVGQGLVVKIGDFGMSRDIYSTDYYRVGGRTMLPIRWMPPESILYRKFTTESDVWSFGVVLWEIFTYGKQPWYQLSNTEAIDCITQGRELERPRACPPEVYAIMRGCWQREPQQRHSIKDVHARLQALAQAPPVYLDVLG
Known Geo Mean Fluorescence of a selection of binders
Hey, just send me the number, nothing else.

binder | test.value
BXhVH2VL5 (antibody, human IgG1, V domains shown, Human IgG1 constant regions (IgG1 expression vectors); COS-7 supernatant; also called hVH2/hVL5) VH: EVQLLESGGGLVQPGGSLRLSCAASGFTFSTYTMSWVRQTPGKRLEWVAYISKGGGSTYYPDTVKGRFTISRDNSKNTLYLQMNSLRAEDTAVYYCAKGAMYGNDFFYPMDYWGQGTTVTVSS VL: QIVLTQSPATLSLSPGERATLSCSASSSVSYMHWYQQKPGQSPRLLIYTTSNLASGIPSRFSGSGSGTDYTLTISSLEPEDAADYYCHQWSSYPWTFGQGTKLEIK | 6.4
BXhVH5VL3 (antibody, human IgG1, V domains shown, Human IgG1 constant regions (IgG1 expression vectors); also called hVH5/hVL3) VH: EVKLLESGGGLVQPGGSLRLSCAASGFTFSTYTMSWVRQTPGKRLEWVAYISKGGGSTYYPDTVKGRFTISRDNSKNTLYLQMNSLRAEDTAVYYCARGAMYGNDFFYPMDYWGQGTTVTVSS VL: QIVLTQSPATLSLSPGERATLSCSASSSVSYMHWYQQKPGQSPRLLIYTTSNLASGIPSRFSGSGSGTFYTLTISSLEPEDFAVYYCHQWSSYPWTFGGGTKLEIK | 13.7
BXhVH3VL3 (antibody, human IgG1, V domains shown, Human IgG1 constant regions (IgG1 expression vectors); also called hVH3/hVL3) VH: EVQLLESGGGLVQPGGSLRLSCAASGFTFSTYTMSWVRQAPGKRLEWVAYISKGGGSTYYPDTVKGRFTISRDNSKNTLYLQMNSLRAEDTAVYYCARGAMYGNDFFYPMDYWGQGTTVTVSS VL: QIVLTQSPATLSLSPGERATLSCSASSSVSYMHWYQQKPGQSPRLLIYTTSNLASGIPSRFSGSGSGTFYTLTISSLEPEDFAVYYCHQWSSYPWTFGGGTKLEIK | 12.6

Now consider a different binder.
Geo Mean Fluorescence reading for BXhVH3VL5 (antibody, human IgG1, V domains shown, Human IgG1 constant regions (IgG1 expression vectors); COS-7 supernatant; also called hVH3/hVL5) VH: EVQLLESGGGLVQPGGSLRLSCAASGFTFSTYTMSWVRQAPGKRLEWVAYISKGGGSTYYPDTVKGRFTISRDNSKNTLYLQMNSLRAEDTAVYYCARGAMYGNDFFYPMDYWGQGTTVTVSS VL: QIVLTQSPATLSLSPGERATLSCSASSSVSYMHWYQQKPGQSPRLLIYTTSNLASGIPSRFSGSGSGTDYTLTISSLEPEDAADYYCHQWSSYPWTFGQGTKLEIK : 6.9
